Target: T1, monkey CD22 protein (ACROBiosystems, catalog number SI2-R52Ha) (monkey, UniProt F6W485 20-688)
T1 construct: commercial protein; also called monkey CD22-ECD; monkey CD22-ECD-His
T1 sequence: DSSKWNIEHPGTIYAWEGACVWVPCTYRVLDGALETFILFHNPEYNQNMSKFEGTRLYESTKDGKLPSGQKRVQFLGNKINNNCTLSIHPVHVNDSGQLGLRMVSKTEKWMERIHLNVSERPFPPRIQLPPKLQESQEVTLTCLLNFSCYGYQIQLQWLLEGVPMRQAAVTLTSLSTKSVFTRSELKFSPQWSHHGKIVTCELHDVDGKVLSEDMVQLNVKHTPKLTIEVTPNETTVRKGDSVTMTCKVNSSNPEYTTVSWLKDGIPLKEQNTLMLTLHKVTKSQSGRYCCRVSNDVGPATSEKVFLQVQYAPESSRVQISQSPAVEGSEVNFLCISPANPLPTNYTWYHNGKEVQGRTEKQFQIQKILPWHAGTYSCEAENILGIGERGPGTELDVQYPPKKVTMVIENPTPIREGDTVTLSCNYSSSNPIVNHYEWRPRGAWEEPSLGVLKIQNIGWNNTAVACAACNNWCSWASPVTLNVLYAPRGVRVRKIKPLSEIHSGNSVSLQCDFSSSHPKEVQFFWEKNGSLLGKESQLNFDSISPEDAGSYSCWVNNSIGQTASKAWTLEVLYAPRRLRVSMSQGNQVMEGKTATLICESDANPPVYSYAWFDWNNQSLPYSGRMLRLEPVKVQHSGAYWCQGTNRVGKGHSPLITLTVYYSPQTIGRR
Test: ELISA, coated monkey CD22 protein, antibody 100 nM
EXPERIMENTAL ENDPOINT: OD450 (OD450)
Respond numerically; units are OD450 and should not be typed.

q: So what does the record say about OD450 for F1.216.2 (antibody, human IgG1, kappa, V domains shown, human-murine chimeric IgG1 kappa) VH: QVQLQQSGPEVVRPGASVKISCKASGYAFSSSWMNWMKQRPGKALEWIGRIYPGDGDTNYSGEFKVKATLTADKSSSTAYMQLSSLTSEDSAVYFCAREGSYYSNPWYFDYWGQGTTLTVSS VL: DVLVTQTPLSLPVSLGDQASISCRSSQSIVQSNGDTYLEWYLQKPGQSPKLLIYKVSNRFSGVPDRFSGSGSGTDFTLKISRVEAEDLGVYYCFQGSHVPFTFGSGTKLEIKR ?
a: 1.94

q: So what does the record say about OD450 for F2.104.10 (antibody, human IgG1, lambda, V domains shown, human-murine chimeric IgG1 lambda) VH: EVQLVESGGGFVKPGGSLKLSCAASGFTFSDYGMNWFRQAPEKGLEWVAYISRGSHTIYYADTVKGRFTISRDNAENTLFLQMTSLRSNDTAMYYCVRMAGYYAMDYWGQGTSLTVSS VL: QLVLTQSSSASFSLGASAKLTCTLSSQHSSYIIEWYQQQPLKPPKYVMEVKKDGSHSTGDGIPDRFSGSSSGADRYLSISNIQSEDEAIYICGVGDTIKEQFVYVFGGGTKVTVLG ?
a: 0.07

q: So what does the record say about OD450 for F1.62.10 (antibody, human IgG1, kappa, V domains shown, human-murine chimeric IgG1 kappa) VH: QVQLQQSGPELVKPGASVKISCKASGYEFSSIWMNWVKQRPGEGLEWIGRIFPGDGEINYNEKFKGKATLTADRSSTTAYMQLSSLTSEDSAVYFCAGWRIYYGTYGAMDYWGQGTSVTVSS VL: DIQMTQITSSLSASLGDRVTISCRASQDIGNYLNWYQQKPDGTVKLLIYYTSRLHSGVPSRFSGSGSRTDYSLTISNLQQEDIATYFCQQGNTLPWTFGGGTKLEIKR ?
a: 0.36

q: So what does the record say about OD450 for F1.192.1 (antibody, human IgG1, kappa, V domains shown, human-murine chimeric IgG1 kappa) VH: AVQLQQSGVELVRPGASVKLSCTGSDFNIKEDYIHWVKQRPEQGLEWIGWIDPENGDTEYASKFQGKATITADTSSNTAYLQLSSLTSEDTAVYYCATYGSLDYWGQGTTLTVSS VL: DIKMTQSPSSMYAFLGERVTITCKASQGINSFLTWFQQKPGKSPKTLIYRANRLVDGVPSRFSGSGSGQDYSLTISSLEYEDVGIYYCLQYDEFPRTFGGGTKLEIKR ?
a: 1.21

q: So what does the record say about OD450 for m971-hIgG1 (antibody, V domains shown, control anti-CD22 antibody; variable regions from US 8,591,889 on human IgG1 constant regions) VH: QVQLQQSGPGLVKPSQTLSLTCAISGDSVSSNSAAWNWIRQSPSRGLEWLGRTYYRSKWYNDYAVSVKSRITINPDTSKNQFSLQLNSVTPEDTAVYYCAREVTGDLEDAFDIWGQGTMVTVSS VL: DIQMTQSPSSLSASVGDRVTITCRASQTIWSYLNWYQQRPGKAPNLLIYAASSLQSGVPSRFSGRGSGTDFTLTISSLQAEDFATYYCQQSYSIPQTFGQGTKLEIKR ?
a: 0.12
